# assay_notes: Water solubility assay in phosphate buffer (HPLC)
# Assay type: physicochemical
# applied_conditions: aqueous buffer, thermodynamic from solid; phosphate buffer pH 7.4, saturated solution, HPLC; read-out: Solubility pH 7.4
quantity_name: solubility

// query Write down solubility measured for item `COc1ccc(N(C)C(=O)[C@H](Cc2ccccc2)NC(=O)Cn2ccc(NC(=O)c3ccccc3)cc2=O)cc1`
// result 8.66 µg/mL

// query Write down solubility measured for item Cc1[nH]c2ccccc2c1CC(=O)NC(Cc1ccccc1)C(=O)N(C)c1ccccc1 (stereo not drawn) [PF74, reference compound]
// result 1.91 µg/mL

// query Write down solubility measured for item `COc1ccc(N(C)C(=O)[C@H](Cc2cc(F)cc(F)c2)NC(=O)Cn2ccc(N)cc2=O)cc1`
// result 437 µg/mL

* * *

# Test system: MT-4 cells
# assay_notes: Cytotoxicity in mock-infected MT-4 cells (MTT assay)
# Format: cell-based
# applied_conditions: uninfected (mock-infected) MT-4 cells, viability reduced by 50%
quantity_name: log10 of CC50 (log10 of the value in µM)
Values below are the log10 of the recorded CC50, with µM as the unit.

// query Write down log10 of CC50 measured for item `COc1ccc(C(=O)Nc2ccn(CC(=O)N[C@@H](Cc3ccccc3)C(=O)N(C)c3ccc(OC)cc3)c(=O)c2)cc1`
// result 1.73

// query Write down log10 of CC50 measured for item `COc1ccc(N(C)C(=O)[C@H](Cc2ccccc2)NC(=O)Cn2ccc(NC(=O)c3ccc([N+](=O)[O-])cc3)cc2=O)cc1`
// result 1.50

// query Write down log10 of CC50 measured for item `COc1ccc(N(C)C(=O)[C@H](Cc2ccccc2)NC(=O)Cn2ccc(NC(=O)c3ccc(N)cc3)cc2=O)cc1`
// result 2.28

// query Write down log10 of CC50 measured for item `COc1ccc(N(C)C(=O)[C@H](Cc2ccccc2)NC(=O)Cn2ccc(N)cc2=O)cc1`
// result 2.42

// query Write down log10 of CC50 measured for item `COC(=O)c1ccc(C(=O)Nc2ccn(CC(=O)N[C@@H](Cc3ccccc3)C(=O)N(C)c3ccc(OC)cc3)c(=O)c2)cc1`
// result 1.98

// query Write down log10 of CC50 measured for item `COc1ccc(N(C)C(=O)[C@H](Cc2ccccc2)NC(=O)Cn2ccc(NC(=O)c3ccc4ccccc4c3)cc2=O)cc1`
// result 1.44

// query Write down log10 of CC50 measured for item `COc1ccc(N(C)C(=O)[C@H](Cc2ccccc2)NC(=O)Cn2ccc(NC(=O)c3ccc(F)cc3)cc2=O)cc1`
// result 1.54

// query Write down log10 of CC50 measured for item `COc1ccc(N(C)C(=O)[C@H](Cc2ccccc2)NC(=O)Cn2ccc(NC(=O)c3ccccc3F)cc2=O)cc1`
// result 1.91

// query Write down log10 of CC50 measured for item `COc1ccc(N(C)C(=O)[C@H](Cc2ccccc2)NC(=O)Cn2ccc(NC(=O)c3ccc(C)cc3)cc2=O)cc1`
// result 1.77

// query Write down log10 of CC50 measured for item `COc1ccc(N(C)C(=O)[C@H](Cc2ccccc2)NC(=O)Cn2ccc(NC(=O)c3ccccc3)cc2=O)cc1`
// result 1.94

// query Write down log10 of CC50 measured for item `COc1ccc(N(C)C(=O)[C@H](Cc2ccccc2)NC(=O)Cn2ccc(NC(=O)c3cccc(F)c3)cc2=O)cc1`
// result 1.79

// query Write down log10 of CC50 measured for item `COc1ccc(N(C)C(=O)[C@H](Cc2ccccc2)NC(=O)Cn2ccc(NC(=O)c3ccc(Cl)cc3)cc2=O)cc1`
// result 1.41

// query Write down log10 of CC50 measured for item `COc1ccc(N(C)C(=O)[C@H](Cc2ccccc2)NC(=O)Cn2ccc(NC(=O)c3ccc(C#N)cc3)cc2=O)cc1`
// result 2.14

// query Write down log10 of CC50 measured for item `COc1ccc(N(C)C(=O)[C@H](Cc2ccccc2)NC(=O)Cn2ccc(NC(=O)c3ccc(Br)cc3)cc2=O)cc1`
// result 1.37

* * *

Kindly state solubility for each of the entries shown.
# assay_notes: Water solubility assay in phosphate buffer (HPLC)
# Format: physicochemical
# applied_conditions: aqueous buffer, thermodynamic from solid; phosphate buffer pH 2, saturated solution, HPLC; read-out: Solubility pH 2
Please respond with the number in µg/mL and leave the unit unwritten.

// query Write down solubility measured for item `COc1ccc(N(C)C(=O)[C@H](Cc2ccccc2)NC(=O)Cn2ccc(NC(=O)c3ccccc3)cc2=O)cc1`
// result 2.69

// query Write down solubility measured for item `COc1ccc(N(C)C(=O)[C@H](Cc2cc(F)cc(F)c2)NC(=O)Cn2ccc(N)cc2=O)cc1`
// result 367

* * *

# Tested on: HIV-2 ROD
# assay_notes: Anti-HIV-2 activity in MT-4 cells (MTT assay)
# Assay type: cell-based
# applied_conditions: Human immunodeficiency virus 2, MT4, 120 h; MT-4 cells, 50% protection against HIV-induced cytopathic effect, MTT, five days after infection; read-out: EC50 HIV-2 ROD
# Experimental: The antiviral activities and cytotoxicities of the target compounds were tested using MT-4 cells infected by HIV-1 IIIB or HIV-2 ROD. […] PF74 was utilized as the control drug in this assay.
quantity_name: EC50 (µM)
Please respond with the number in µM and leave the unit unwritten.

// query Write down EC50 measured for item `COc1ccc(N(C)C(=O)[C@H](Cc2ccccc2)NC(=O)Cn2ccc(NC(=O)c3ccc(C)cc3)cc2=O)cc1`
// result 20.5

// query Write down EC50 measured for item `COc1ccc(N(C)C(=O)[C@H](Cc2ccccc2)NC(=O)Cn2ccc(NC(=O)c3ccccc3F)cc2=O)cc1`
// result 7.92

// query Write down EC50 measured for item `COc1ccc(N(C)C(=O)[C@H](Cc2cc(F)cc(F)c2)NC(=O)Cn2ccc(N)cc2=O)cc1`
// result 15.6

* * *

# System: HIV-2 ROD
# assay_notes: Anti-HIV-2 activity in MT-4 cells (MTT assay)
# Type: cell-based
# applied_conditions: Human immunodeficiency virus 2, MT4, 120 h; MT-4 cells, 50% protection against HIV-induced cytopathic effect, MTT, five days after infection; read-out: EC50 HIV-2 ROD
pEC50: −log10 of the molar value.
quantity_name: pEC50

// query Write down pEC50 measured for item `COc1ccc(N(C)C(=O)[C@H](Cc2ccccc2)NC(=O)Cn2ccc(NC(=O)c3ccc(Br)cc3)cc2=O)cc1`
// result < 4.63

// query Write down pEC50 measured for item `COc1ccc(N(C)C(=O)[C@H](Cc2ccccc2)NC(=O)Cn2ccc(NC(=O)c3ccc4ccccc4c3)cc2=O)cc1`
// result < 4.56

// query Write down pEC50 measured for item `COc1ccc(N(C)C(=O)[C@H](Cc2ccccc2)NC(=O)Cn2ccc(NC(=O)c3ccc(Cl)cc3)cc2=O)cc1`
// result < 4.59
